- test_name: small molecules boosting NK-mediated OVCAR3 lysis – imaging, primary NK cells, calcein-AM imaging, primary screen (AID 1508625);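 note: compound given to NK cells 16 h before adding targets at 1.5 to 1 ratio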;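 for Z-score: more negative robust z means stronger NK killing of tumor cells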
- protocol_conditions: OVCAR3 lysis by primary NK cells, at 5 µM; measured here: robust Z-score, single-point normalisation
z-score overview
Please respond with just the number, no unit label.

- compound: "COc1cccc(C2C3=C(CCCC3=O)NC3=C2C(=O)CCC3)c1OC"
  z-score: -1.45
- compound: "CNC(=O)C(C)Oc1cccc(Cl)c1 (stereo not given)"
  z-score: -1.46

INPUT: State its z-score: O=c1c(=Nc2ccccc2O)c(=O)c2ccccc12
OUTPUT: -0.945

INPUT: Look up and state reported z-score for COc1ccc(C(=O)NC23CC4CC(CC(C4)C2)C3)c(OC)c1
OUTPUT: -1.79

INPUT: Tell me its z-score given CCOc1ccc(S(=O)(=O)NC(C)C)c2cccnc12 as the entry.
OUTPUT: -1.16

INPUT: Item CN1C(=O)c2ccccc2C(C(=O)Nc2ccc3c(c2)OCCO3)C1c1cccs1 (stereo not given) : provide z-score
OUTPUT: -1.79

INPUT: Give reported z-score value for CCCc1cc(=O)oc2cc3oc4c(c3cc12)CCCC4
OUTPUT: -0.438

INPUT: Hello, please tell me recorded z-score for this one: S=C(c1nc2ccccc2[nH]1)N1CCOCC1
OUTPUT: -1.07

----------
- test_name: small molecules boosting NK-mediated OVCAR3 lysis – imaging, primary NK cells, calcein-AM imaging, primary screen (AID 1508625);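 note: compound given to NK cells 16 h before adding targets at 1.5 to 1 ratio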
- protocol_conditions: OVCAR3 lysis by primary NK cells, at 5 µM
reported_property: corrected activity, negative = more killing (%)
The response must be a number in % with no trailing unit.

Check out these entries, answers already filled in.
- sample_smiles: "Cc1ccc(-n2c(C)cc(C(=S)N3CCOCC3)c2C)cc1Cl"
  unit_annotation: "%"
  assay_value: -4.03
- sample_smiles: "Cc1ccc(Cl)cc1N1C(=O)CN(Cc2cccs2)C1=S"
  unit_annotation: "%"
  assay_value: -2.1
- sample_smiles: "COc1ccc(C=Nc2ccc(C(N)=O)cc2)cc1"
  unit_annotation: "%"
  assay_value: -2.24
- sample_smiles: "Cc1cc(C)cc(-n2cnc3cc(C(=O)NC4CCCCCC4)ccc32)c1"
  unit_annotation: "%"
  assay_value: -4.5

Here is another compound to look at.
INPUT: Report corrected activity, negative = more killing for COc1ccc(NC(=O)NCCc2ccncc2)cc1
OUTPUT: 0.111

----------
- test_name: small molecules boosting NK-mediated OVCAR3 lysis – imaging, primary NK cells, calcein-AM imaging, primary screen (AID 1508625);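 note: compound given to NK cells 16 h before adding targets at 1.5 to 1 ratio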;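 for Z-score: more negative robust z means stronger NK killing of tumor cells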
- protocol_conditions: OVCAR3 lysis by primary NK cells, at 5 µM; measured here: robust Z-score, single-point normalisation
reported_property: z-score
Answer as a number with no unit attached.

# example entries with known answers
- compound: "O=C1C(=Cc2ccccc2)SC(=S)N1C1CCS(=O)(=O)C1 (stereo unspecified)"
  z-score: -0.887
- compound: "CCc1ccc(NC(=O)CCNC(=O)Cn2cnc3ccccc3c2=O)cc1"
  z-score: 0.279
- compound: "Cc1ccccc1N1C(=O)c2ccc(C(=O)Nc3cccc([N+](=O)[O-])c3)cc2C1=O"
  z-score: -1.15
- compound: "CN(C)S(=O)(=O)c1ccc(C(O)=C2C(=O)C(=O)N(Cc3cccnc3)C2c2ccc(Cl)cc2)cc1 (stereo unspecified)"
  z-score: -0.973
- compound: "CN(C(=O)Cn1ncc2c(=O)oc3ccccc3c21)c1ccc(Br)cc1"
  z-score: -1.72

In the following, a different compound is considered.
INPUT: Return value of z-score for input Cc1cc(C)nc(N=C(N)Nc2cccc(F)c2)n1 , no commentary.
OUTPUT: 0.0433

----------
- test_name: small molecules boosting NK-mediated OVCAR3 lysis – imaging, primary NK cells, calcein-AM imaging, primary screen (AID 1508625);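 note: compound given to NK cells 16 h before adding targets at 1.5 to 1 ratio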
- protocol_conditions: OVCAR3 lysis by primary NK cells, at 5 µM
Each entry below carries its recorded corrected activity, negative = more killing.
Answer with a number only, understood to be in %.

- compound: "O=C1OC(c2ccccc2Cl)=NC1=Cc1ccccc1F"
  assay_value: -3.5
- compound: "COc1cc(C(=O)N2N=C(C3CC3)CC2(O)C(F)(F)F)cc(OC)c1OC (centres undefined)"
  assay_value: -3.44
- compound: "COc1ccc(C=c2sc3nc4cc(C)c(C)cc4n3c2=O)cc1Br"
  assay_value: -0.475
- compound: "Cc1c(C(=O)OC(C)C)sc(NC(=O)c2cc3ccccc3c(=O)o2)c1C(=O)OC(C)C"
  assay_value: -4.01
- compound: "O=[N+]([O-])c1ccc(CNC2CCCC2)cc1"
  assay_value: -5.52
- compound: "Cc1occc1C(=O)N1N=C(C2CC2)CC1(O)C(F)(F)F (centres undefined)"
  assay_value: -2.75
- compound: "Cc1cc(=O)oc2ccc(Oc3ccc(C#N)cc3[N+](=O)[O-])cc12"
  assay_value: -0.59
- compound: "CC1=NNC(=O)C1CCC(=O)NN=Cc1ccncc1 (centres undefined)"
  assay_value: -4.86
- compound: "O=S(=O)(c1ccc(Br)c2nsnc12)N1CCC(Cc2ccccc2)CC1"
  assay_value: -3.43
- compound: "CCOC(=O)c1c(N)sc(C(=O)Nc2cc(C)ccc2C)c1C"
  assay_value: -5.05

INPUT: Output corrected activity, negative = more killing of Cc1ccccc1-n1nnnc1C(c1ccccc1)N(C)Cc1ccc(Cl)c(Cl)c1 (centres undefined)
OUTPUT: -1.59

INPUT: Item N#Cc1c(NC(=O)CN2C(=O)C3CC=C(Cl)CC3C2=O)sc2c1CCC2 (centres undefined) : provide corrected activity, negative = more killing
OUTPUT: -0.241

INPUT: State its corrected activity, negative = more killing for this compound: Cc1ccc(S(=O)(=O)n2nc(OC(=O)c3ccc(C)c(C)c3)cc2N)cc1
OUTPUT: -5.25

INPUT: Please look at this compound and report its corrected activity, negative = more killing: Cc1c(C(=O)NCc2ccc(F)cc2)sc2ncn(Cc3ccccc3Cl)c(=O)c12
OUTPUT: -2.74

----------
- test_name: small molecules boosting NK-mediated OVCAR3 lysis – imaging, primary NK cells, calcein-AM imaging, primary screen (AID 1508625);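 note: compound given to NK cells 16 h before adding targets at 1.5 to 1 ratio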;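 for Z-score: more negative robust z means stronger NK killing of tumor cells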
- protocol_conditions: OVCAR3 lysis by primary NK cells, at 5 µM; measured here: robust Z-score, single-point normalisation
Response field class: enum, chosen by comparing z-score against low end (below -1), middle (-1 to below -0.8), high end (-0.8 or more)

- compound: "Cc1cc(Nc2cccc(C(=O)O)c2)n2ncnc2n1"
  category_label: "high end"
- compound: "CCC(C)N1C(=O)c2ccccc2C1C(=O)NC1CCCCCC1 (centres undefined)"
  category_label: "low end"
- compound: "COC(=O)c1cc(OC)c(OC)cc1NC(=O)c1cc(Cl)ccc1Cl"
  category_label: "middle"
- compound: "COc1ccc(NC(=O)c2sc3cc([N+](=O)[O-])ccc3c2Cl)c(OC)c1"
  category_label: "middle"
- compound: "CC(=O)Oc1ccc(-c2nc3ccc(OC(C)=O)cc3c(=O)o2)cc1"
  category_label: "low end"

INPUT: Band assignment needed for CCOC(=O)c1c(-c2ccccc2)csc1NC(=O)CSc1nc2ccccc2o1 please.
OUTPUT: high end

INPUT: Field: class (z-score) — entry: O=C(Oc1ccccc1C(=S)N1CCOCC1)c1ccc(Br)cc1
OUTPUT: low end

INPUT: Place this compound in its band: CC1=C(C)CC(C(=O)Nc2ccc(S(=O)(=O)N3CCOCC3)cc2)C(C(=O)O)C1 (centres undefined)
OUTPUT: low end

INPUT: Which category fits this record: Cc1ccc(OCCNC2CCCC2)c(C)c1
OUTPUT: high end

INPUT: Assign a category based on measured z-score for CC1CCCC(C(=O)OCc2ccccc2)N1 (centres undefined) and give only the class name.
OUTPUT: low end

INPUT: In plain terms, what class is O=C(Nc1cc([N+](=O)[O-])ccc1Cl)c1cnc2n(c1=O)CCS2 ?
OUTPUT: high end

INPUT: Input COc1ccccc1Nc1ncc(C(=O)N2CCC(Cc3ccccc3)CC2)c2ccccc12 ; output its category
OUTPUT: low end

----------
- test_name: small molecules boosting NK-mediated OVCAR3 lysis – imaging, primary NK cells, calcein-AM imaging, primary screen (AID 1508625);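 note: compound given to NK cells 16 h before adding targets at 1.5 to 1 ratio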;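 for Z-score: more negative robust z means stronger NK killing of tumor cells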
- protocol_conditions: OVCAR3 lysis by primary NK cells, at 5 µM; measured here: robust Z-score, single-point normalisation
Form field: z-score (one value per entry).
Just the number, please, no unit after it.

- compound: "CC(C(=O)N1CCN(c2ccccc2)CC1)c1ccc([N+](=O)[O-])cc1 (stereo not drawn)"
  z-score: -1.91
- compound: "CCOc1cc(C=c2sc3nc4ccccc4n3c2=O)ccc1O"
  z-score: -1.26
- compound: "COc1ccc(NC(=O)C(N)=O)cc1"
  z-score: -1.62
- compound: "Cc1cc(C)n(C(=O)c2ccc(S(=O)(=O)N3CCCCCC3)cc2)n1"
  z-score: -1.46
- compound: "O=C(Nc1ccc(Oc2ccccc2)cc1)c1nn(-c2ccc(Cl)cc2)c(=O)c2ccccc12"
  z-score: -1.69

INPUT: Return the recorded z-score value; entry: CC1(C)CC(=O)C(CCC(=O)c2ccccc2)C(C)(C)N1 (stereo not drawn)
OUTPUT: -0.733

INPUT: Note z-score for the compound shown: Cc1cc(C)c(S(=O)(=O)NCc2ccc(C(=O)NCCc3ccc(Cl)cc3)cc2)c(C)c1
OUTPUT: -1.38

INPUT: For Brc1cccc(-c2nnc3sc(CN4CCOCC4)cn23)c1 , write its z-score.
OUTPUT: -1.74
